// Kp at 24 h lookup, one value per entry
Assay: Brain penetration in rats, brain to plasma ratios (Kp,brain, Kpuu,brain)
Assay type: in vivo, Sprague-Dawley rats
Settings: Sprague-Dawley, rat, brain, intravenous, 1 mg/kg/hr, rat brain to plasma ratio; read-out: Rat Kp
# answer = number (no unit)

Sample answers from the record:
[[record]]
compound = "C[C@](N)(c1ccc(F)cc1)c1cnc(N2CCN(c3ncnn4cc(-c5cnn([C@H]6CCOC6)c5)cc34)CC2)nc1 [Compound 15]"
observed_property = "Kp at 24 h"
recorded_measurement = 0.9

[[record]]
compound = "C[C@](N)(c1ccc(F)cc1)c1cnc(N2CCN(c3ncnn4cc(-c5cnn(C6CCOCC6)c5)cc34)CC2)nc1 [Compound 16]"
observed_property = "Kp at 24 h"
recorded_measurement = 0.93


Now let's try a different one.
Entry C[C@](N)(c1ccc(F)cc1)c1cnc(N2CCN(c3ncnn4cc(-c5cnn(CC6COC6)c5)cc34)CC2)nc1 [Compound 8] : reported Kp at 24 h = ?
0.43
